run-conditions: in n-propanol, 303.15 K
measured-metric: solubility (mole fraction)

INSERT INTO measurements (smi, measured_metric, numeric_readout) VALUES
  ('CN1CCN(C(=O)O[C@H]2c3nccnc3C(=O)N2c2ccc(Cl)cn2)CC1', 'solubility (mole fraction)', 0.000292);

* * *

run-conditions: in acetone, 318.15 K
measured-metric: solubility (mole fraction)

INSERT INTO measurements (smi, measured_metric, numeric_readout) VALUES
  ('CN1CCN(C(=O)O[C@H]2c3nccnc3C(=O)N2c2ccc(Cl)cn2)CC1', 'solubility (mole fraction)', 0.0037);

* * *

run-conditions: in n-propyl acetate, 318.15 K
measured-metric: solubility (mole fraction)

INSERT INTO results (smi, result) VALUES
  ('CN1CCN(C(=O)O[C@H]2c3nccnc3C(=O)N2c2ccc(Cl)cn2)CC1', 0.00239);
